The measured values listed here are drawn from ChEMBL document CHEMBL1201862.

# System: U-251
# EXPERIMENT_SUMMARY: NCI tumour cell line growth inhibition, 48 h
The source made the active and inactive calls. Cut-off read from the data, not from the text of the source: active = GI50 up to about 1.1 µM and inactive = higher.
// classify into class 1 for active, class 0 for inactive

In: Tell me the assay call for `C/C(=N\NC(=S)Nc1ccc(Cl)cc1)c1nc2cccnc2[nH]1` please.
Out: class 1

In: Could you please tell me the result logged for `CCOC(=O)NC(Nc1ncn(C(NC(=O)OCC)(C(F)(F)F)C(F)(F)F)n1)(C(F)(F)F)C(F)(F)F` in this assay?
Out: class 0

In: // outcome(item) with item = CCOc1cc2c(cc1O)CC[C@@H]1[C@@H]2CC[C@]2(C)C(OS(=O)OC3CC[C@@H]4[C@H]5CCc6cc(O)c(OCC)cc6[C@@H]5CC[C@@]34C)CC[C@@H]12 (some centres undefined)
Out: class 1

In: Kindly provide the recorded test outcome for the following molecule: `Cc1ccc(/C=N/n2c(-c3ccc(C)cc3)n[nH]c2=O)cc1`
Out: class 0

In: Assay outcome for O=C(c1cccnc1)N1N=C(c2ccccc2)CC1(O)c1cc(F)c(Cl)cc1Cl (centres undefined) : what was it?
Out: class 0

---

# Tested on: SF-268
# EXPERIMENT_SUMMARY: NCI tumour cell line growth inhibition, 48 h
Activity calls are given as the source filed them. Rule as the data show it: active = GI50 up to about 1.1 µM and inactive = higher.
In this exercise, the only acceptable responses are YES for active, NO for inactive

Sample answers from the record:
CC(=O)C(CN1CCOCC1)C(c1ccccc1)c1c(O)c2ccccc2oc1=O (stereo not given) ... NO
COC1OC2COC(c3ccccc3)OC2C(O)C1Br (stereo not given) ... NO
COC(=S)OC1CC(n2cnc3c(=O)[nH]cnc32)OC1CO[Si](C)(C)C(C)(C)C (stereo not given) ... NO
C/C(=N\NC(N)=S)c1sc(-n2nc(-c3ccccc3)cc2-c2ccccc2)nc1C ... NO

Next molecule, please.
In: Hi, do you know how `CN(C)CCNC(=O)c1cccc2nc3ccc4cccnc4c3nc12` came out in this test?
Out: YES

---

# Test system: IGROV-1
# EXPERIMENT_SUMMARY: NCI tumour cell line growth inhibition, 48 h
Activity calls are given as the source filed them. No stated cut-off is given here; in the data, active = GI50 up to about 1.1 µM and inactive = higher.
OUTCOME_MEASURE: GI50

C=C(C)[C@@H](O)[C@H](O)C[C@H](C)C1CC[C@]2(C)C1=CC[C@@H]1[C@@]3(C)CC[C@@H](OC(C)=O)C(C)(C)[C@@H]3C[C@@H](OC3OC(COC(C)=O)C(O)C(O)C3O)[C@]12C (some centres not stated) ... 2.4 µM (inactive)
CC[C@H]1CNC(=O)CC1CC(=O)OC (some centres not stated) ... > 100 µM (inactive)

Provide the reported GI50 of each entry below, same order.
1. COc1ccc2c(c1)c1c3c(ccc4ncn2c43)N(CCN(C)C)CCN=1
2. OC(c1ccc(-c2ccccc2)cc1)(c1ccc(-c2ccccc2)cc1)c1ccc(-c2ccccc2)cc1

Out:
1: 1.31 µM (inactive); 2: > 100 µM (inactive)

---

# Test system: SR
# EXPERIMENT_SUMMARY: NCI tumour cell line growth inhibition, 48 h
Calls of active or inactive are those of the source. Rule as the data show it: active = GI50 up to about 1.1 µM and inactive = higher.
Returns: one label drawn from active, inactive

In: Entry `O=C(Cc1ccccc1)N/N=C1\C(=O)Nc2ccccc21` : call = ?
Out: inactive

---

# Tested on: SNB-78
# EXPERIMENT_SUMMARY: NCI tumour cell line growth inhibition, 48 h
Active and inactive are the calls of the source. Cut-off read from the data, not from the text of the source: active = GI50 up to about 1.1 µM and inactive = higher.
OUTCOME_MEASURE: GI50

Some entries whose results are on file:
O=c1cc(-c2ccccc2)oc2cc(OCCCCCCCCCCOc3ccc4c(=O)cc(-c5ccccc5)oc4c3)ccc12 ... > 100 µM (inactive)
NCCCSCC(=O)O ... > 100 µM (inactive)

Consider the record given below.
Reported GI50 of CCC(Oc1ccc(OC)c2c1C(=O)CCC2)C(=O)O (stereo not drawn) : > 100 µM (inactive)
